All values here come from ChEMBL document CHEMBL6127141.

Entries and their logP at 24 h
Assay: Lipophilicity, logP of compound in n-octanol saturated PBS incubated for 24 hrs by shake-flask method based ultraviolet spectrophotometry
Type: physicochemical

molecule	logP at 24 h
O=c1c(F)cn(C2CCCO2)c(=O)n1CCCCCCCCN1C[C@H](O)[C@@H](O)[C@H](O)[C@H]1CO (some centres undefined)	-0.65
O=c1c(F)cn(C2CCCO2)c(=O)n1CCCCCN1C[C@H](O)[C@@H](O)[C@H](O)[C@H]1CO (some centres undefined)	-2.49
O=c1c(F)cn(C2CCCO2)c(=O)n1CCCCCCCCCCCN1C[C@H](O)[C@@H](O)[C@H](O)[C@H]1CO (some centres undefined)	1.02
OC[C@H]1NC[C@H](O)[C@@H](O)[C@@H]1O [DUVOGLUSTAT]	-0.68

----------
Entries and their IC50
System: HCT-116
Test: Cytotoxicity against human HCT-116 cells assessed as inhibition of cell proliferation incubated for 48 hrs by MTT assay
Format: functional, cell-based
Conditions: HCT-116, 48 h
assay readout: IC50 (µM)

compound	unit of measurement	rel	assay result
OC[C@H]1NC[C@H](O)[C@@H](O)[C@@H]1O	µM	>	100
O=c1c(F)cn(C2CCCO2)c(=O)n1CCCCCCCCN1C[C@H](O)[C@@H](O)[C@H](O)[C@H]1CO (stereo not given in full)	µM	=	7.32
O=c1[nH]c(=O)n(C2CCCO2)cc1F (stereo not given)	µM	=	88.6
O=c1c(F)cn(C2CCCO2)c(=O)n1CCCCCN1C[C@H](O)[C@@H](O)[C@H](O)[C@H]1CO (stereo not given in full)	µM	=	15.6
O=c1c(F)cn(C2CCCO2)c(=O)n1CCCCCCCCCCCN1C[C@H](O)[C@@H](O)[C@H](O)[C@H]1CO (stereo not given in full)	µM	=	1.37
